System: SF-268 CNS
run description: NCI-60 one-dose screen, 48 h (100 = growth as untreated, 0 = no growth, -100 = all killed)
condition label: 10 µM unless noted
This is part of a sample that, as a whole, favours compounds with a hit. Of some 83,000 tested, about 20% had one in any assay. Active and inactive are the calls of the source. Rule for the calls: active = growth percent below 10; inactive = the rest.
// growth lookup, one value per entry

compound	target under test	growth
COC(=O)C(Cc1ccccc1)NC(=O)c1ccc(NC(=O)c2[nH]c(C)c(Cl)c2Cl)c(OC(C)C)c1 (stereo not given)	SF-268 CNS	86.4% (inactive)
Cn1ccc(=O)nc1	SF-268 CNS	86.1% (inactive)
Cc1[nH]c(C2CC(c3ccc(C(F)(F)F)c(F)c3)=NN2c2ccccc2)c(C)c1C(=O)NCC(F)(F)F (stereo not given)	SF-268 CNS	84.7% (inactive)
C=C1C(=O)O[C@H]2[C@H]1CC/C(COC(=O)/C=C/C(=O)OC/C1=C/CC[C@@]3(C)O[C@H]3[C@H]3OC(=O)C(=C)[C@@H]3CC1)=C\CC[C@@]1(C)O[C@@H]21	SF-268 CNS	90.3% (inactive)
CSc1nc(C)c([N+](=O)[O-])c(N)n1	SF-268 CNS	105% (inactive)
S=C(c1ccc2c(c1)OCO2)N1CCN(c2cccc(Cl)c2)CC1	SF-268 CNS	41% (inactive)
CCN1CCN(C(=O)[C@]23CC[C@@H](C)[C@H](C)[C@@H]2C2=CC[C@@H]4[C@@]5(C)C/C(=C/c6cccnc6)C(=O)C(C)(C)[C@@H]5CC[C@@]4(C)[C@]2(C)CC3)CC1	SF-268 CNS	51% (inactive)
CC1(C)[C@@H](O[C@@H]2OC[C@@H](O[C@@H]3O[C@H](CO)[C@@H](O)[C@H](O)[C@H]3O[C@@H]3OC[C@@H](O)[C@H](O)[C@H]3O)[C@H](O)[C@H]2O[C@@H]2O[C@H](CO)[C@@H](O)[C@H](O)[C@H]2O)CC[C@]2(C)[C@H]3CC[C@]45OC[C@@]6(CC[C@](C)(C=O)C[C@H]64)[C@H](O)C[C@@]5(C)[C@]3(C)CC[C@@H]12	SF-268 CNS	-55.1% (active)
CC1(C)CC[C@]23CC[C@]4(C)[C@H](CC[C@@H]5[C@@]6(C)C/C(=C/c7ccncc7)C(=O)C(C)(C)[C@@H]6CC[C@]54C)[C@H]2[C@H]1OC3	SF-268 CNS	78.1% (inactive)
COc1cnc2c(c1)C(=O)c1c-2n(CCCCl)c(=O)c2ccncc12	SF-268 CNS	57.6% (inactive)
[2H]C([2H])([2H])Oc1ccc(F)cc1/C=C/C(=O)/C=C(O)/C=C/c1cc(F)ccc1OC([2H])([2H])[2H]	SF-268 CNS	89.8% (inactive)
CCOC(=O)C1=C(C)C(Cl)=N/C1=C\c1[nH]c(Cl)c(C)c1C(=O)OCC	SF-268 CNS	101% (inactive)
CN(C)CCCC1(c2ccc(F)cc2)OCc2cc(-c3cc4ccccc4s3)ccc21 (stereo not given)	SF-268 CNS	38.3% (inactive)
CCN(CC)CCCN1C(=O)c2c(c(C)c3c(oc4ccc(O)cc43)c2C)C1=O	SF-268 CNS	66% (inactive)
COc1cc(NC(=O)c2cncnc2Nc2ccc3c(ccn3Cc3ccccn3)c2)cc(OC)c1	SF-268 CNS	63.1% (inactive)
